Listed here are variants together with their documented 8OG:A repair function score.
B1: library; numbered along this chain (parent)
chain: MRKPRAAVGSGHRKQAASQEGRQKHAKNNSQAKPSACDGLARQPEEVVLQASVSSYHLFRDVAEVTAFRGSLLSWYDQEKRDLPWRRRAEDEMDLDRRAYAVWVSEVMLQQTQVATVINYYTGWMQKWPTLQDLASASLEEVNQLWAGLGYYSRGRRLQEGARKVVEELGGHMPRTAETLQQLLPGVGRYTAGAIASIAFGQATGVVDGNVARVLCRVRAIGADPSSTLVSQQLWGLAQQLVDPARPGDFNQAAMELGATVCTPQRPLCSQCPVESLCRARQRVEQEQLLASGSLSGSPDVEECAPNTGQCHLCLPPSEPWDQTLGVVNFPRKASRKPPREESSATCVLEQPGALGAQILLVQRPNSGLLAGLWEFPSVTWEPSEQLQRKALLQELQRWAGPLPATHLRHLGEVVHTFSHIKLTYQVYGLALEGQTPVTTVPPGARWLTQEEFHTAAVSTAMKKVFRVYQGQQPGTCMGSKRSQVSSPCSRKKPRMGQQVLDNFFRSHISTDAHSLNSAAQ

Variants of: B1
Experimental Protocol: 8OG:A repair function score (normalized; synonymous = 0, nonsense = -1) (normalized log-likelihood score); higher = more repair activity (WT-like);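 also: cells sorted at 72 h after reporter transfection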
Condition Notes: with 8OG:A DNA repair reporter (GFP) in HEK-293 MUTYH KO cells

Guide cases for 8OG:A repair function score, answers given:
| Mutation List | Value |
| --- | --- |
| V458F | -0.4 |
| L257N | -1.21 |

(Q) Give me measured 8OG:A repair function score, please, for this variant: G222C
(A) -0.509

(Q) Identify the reported 8OG:A repair function score for the following entry. Y425P
(A) -0.934

(Q) State its 8OG:A repair function score for this variant: G222N
(A) -0.593

(Q) Identify the reported 8OG:A repair function score for the following entry. Q78N
(A) -0.105

(Q) Please list 8OG:A repair function score recorded for the variant E382Q
(A) 0.185
